All figures here come from patent US9073855B2.

target entity: GST-Bcl-XL (Homo sapiens)
protocol details: TR-FRET binding assay, GST-Bcl-XL with F-Bak peptide probe
protocol conditions: TR-FRET Binding Affinity, GST-Bcl-XL, F-Bak peptide probe
outcome measure: Ki

Kindly note the recorded Ki for CC1(C)CCC(CN2CCN(c3ccc(C(=O)NS(=O)(=O)c4ccc(NC5CCN(Cc6nccs6)CC5)c([N+](=O)[O-])c4)c(Oc4ccc5[nH]ccc5c4)c3)CC2)=C(c2ccc(Cl)cc2)C1 , which is > 0.66 µM

Kindly note the recorded Ki for CC1(C)CCC(CN2CCN(c3ccc(C(=O)NS(=O)(=O)c4ccc(NCCC(F)(F)F)c([N+](=O)[O-])c4)c(Oc4cccc5[nH]ccc45)c3)CC2)=C(c2ccc(Cl)cc2)C1 , which is > 0.66 µM

Kindly note the recorded Ki for CN1CCC(Nc2ccc(S(=O)(=O)NC(=O)c3ccc(N4CCN(CC5=C(c6ccc(Cl)cc6)CCCCC5)CC4)cc3Oc3cccc4[nH]ccc34)cc2[N+](=O)[O-])CC1 , which is > 0.66 µM

---

target entity: GST-Bcl-2 (Homo sapiens, UniProt P10415)
Sequence (P10415 whole entry): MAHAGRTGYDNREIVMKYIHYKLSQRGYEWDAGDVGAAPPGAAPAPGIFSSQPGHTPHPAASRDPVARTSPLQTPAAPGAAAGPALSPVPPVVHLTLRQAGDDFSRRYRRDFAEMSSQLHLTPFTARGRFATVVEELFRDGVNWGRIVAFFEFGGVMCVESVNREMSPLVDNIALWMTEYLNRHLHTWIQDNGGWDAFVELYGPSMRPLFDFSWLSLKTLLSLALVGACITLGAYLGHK
protocol details: TR-FRET binding assay, GST-Bcl-2 with F-Bak peptide probe
protocol conditions: TR-FRET Binding Affinity, GST-Bcl-2, F-Bak peptide probe
outcome measure: Ki (nM)
# value in nM; strip the unit string

Kindly note the recorded Ki for CC1(C)CCC(CN2CCN(c3ccc(C(=O)NS(=O)(=O)c4ccc(NN5CCN(CCO)CC5)c([N+](=O)[O-])c4)c(Oc4ccc5[nH]ccc5c4)c3)CC2)=C(c2ccc(Cl)cc2)C1 [Example 233] , which is 0.243

Further cases:
Kindly note the recorded Ki for CC1(C)CCC(CN2CCN(c3ccc(C(=O)NS(=O)(=O)c4ccc(NCC5CCOCC5)c(C#N)c4)c(Oc4cccc5[nH]ccc45)c3)CC2)=C(c2ccc(Cl)cc2)C1 [Example 366] , which is 5.46

Kindly note the recorded Ki for CN(C)CCCNc1ccc(S(=O)(=O)NC(=O)c2ccc(N3CCN(Cc4ccccc4-c4ccc(Cl)cc4)CC3)cc2Oc2cccc3cnccc23)cc1[N+](=O)[O-] [Example 42] , which is 0.048

---

target entity: GST-Bcl-XL (Homo sapiens, UniProt Q07817)
Sequence (Q07817 whole entry): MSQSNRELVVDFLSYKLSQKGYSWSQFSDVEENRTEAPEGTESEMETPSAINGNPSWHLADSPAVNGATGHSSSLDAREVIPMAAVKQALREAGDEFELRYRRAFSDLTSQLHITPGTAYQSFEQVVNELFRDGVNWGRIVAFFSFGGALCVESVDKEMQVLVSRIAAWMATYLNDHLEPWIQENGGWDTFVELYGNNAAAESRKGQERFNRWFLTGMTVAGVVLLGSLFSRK
protocol details: TR-FRET binding assay, GST-Bcl-XL with F-Bak peptide probe
protocol conditions: TR-FRET Binding Affinity, GST-Bcl-XL, F-Bak peptide probe
outcome measure: Ki

Kindly note the recorded Ki for CC1(C)CCC(CN2CCN(c3ccc(C(=O)NS(=O)(=O)c4ccc(NCC5CN(CC#N)CCO5)c([N+](=O)[O-])c4)c(Oc4cccc5[nH]cnc45)c3)CC2)=C(c2ccc(Cl)cc2)C1 (stereo not shown) [Example 431] , which is 6.77 nM

Kindly note the recorded Ki for O=C(NS(=O)(=O)c1ccc(NCCCN2CCOCC2)cc1)c1ccc(N2CCN(Cc3ccccc3-c3ccc(Cl)cc3)CC2)cc1Oc1ccccc1 [Example 78] , which is > 660 nM

Kindly note the recorded Ki for CC1(C)CCC(CN2CCN(c3ccc(C(=O)NS(=O)(=O)c4ccc(NC5CCN(S(C)(=O)=O)CC5)c([N+](=O)[O-])c4)c(Oc4ccc5[nH]ccc5c4)c3)CC2)=C(c2ccc(Cl)cc2)C1 [Example 335] , which is > 660 nM

Kindly note the recorded Ki for CNc1ccc(S(=O)(=O)NC(=O)c2ccc(N3CCN(CC4=C(c5ccc(Cl)cc5)CC(C)(C)CC4)CC3)cc2Oc2ccc3[nH]ccc3c2)cc1[N+](=O)[O-] [Example 245] , which is > 660 nM

Kindly note the recorded Ki for O=C(NS(=O)(=O)c1ccc(NC2CCN(S(=O)(=O)c3cccc4cccnc34)CC2)c([N+](=O)[O-])c1)c1ccc(N2CCN(Cc3ccccc3-c3ccc(Cl)cc3)CC2)cc1Oc1ccccc1 [Example 158] , which is > 660 nM

Further cases:
Kindly note the recorded Ki for CC1(C)CCC(CN2CCN(c3ccc(C(=O)NS(=O)(=O)c4ccc(NCC5CCCOC5)c([N+](=O)[O-])c4)c(Oc4ccc5[nH]ccc5c4)c3)CC2)=C(c2ccc(Cl)cc2)C1 (stereo not shown) [Example 261] , which is > 660 nM

Kindly note the recorded Ki for CC1(C)CCC(CN2CCN(c3ccc(C(=O)NS(=O)(=O)c4cnc(OCC5CCOCC5)c(Cl)c4)c(Oc4cccc5[nH]ccc45)c3)CC2)=C(c2ccc(Cl)cc2)C1 [Example 387] , which is 280 nM
